Before we begin, note that these IC50 values for cGMP-specific 3',5'-cyclic phosphodiesterase (Homo sapiens) originate from several publications.
Please reply with the bare figure in nM and do not write the unit itself.

Tell me reported IC50 for CCOc1ccc([C@H]2c3[nH]c4ccccc4c3Cc3c(O)n(CCn4cccc4)c(=O)n32)cc1 , tested with cGMP-specific 3',5'-cyclic phosphodiesterase (Homo sapiens). 100

Tell me reported IC50 for CCOc1ccc([C@H]2c3[nH]c4ccccc4c3Cc3c(O)n(Cc4cccnc4)c(=O)n32)cc1 , tested with cGMP-specific 3',5'-cyclic phosphodiesterase (Homo sapiens). 20

Tell me reported IC50 for CC(C)=CCc1c(O)c2c(c3c1OC(C)(C)C=C3)CC=C(c1ccc3c(c1)OCCO3)C2=O , tested with cGMP-specific 3',5'-cyclic phosphodiesterase (Homo sapiens). 2700

Tell me reported IC50 for CCn1c(O)c2n(c1=O)[C@@H](c1ccc(OC)cc1OC)c1[nH]c3ccccc3c1C2 , tested with cGMP-specific 3',5'-cyclic phosphodiesterase (Homo sapiens). 720

Tell me reported IC50 for CCCCn1c(O)c2n(c1=O)[C@H](c1ccsc1)c1[nH]c3ccccc3c1C2 , tested with cGMP-specific 3',5'-cyclic phosphodiesterase (Homo sapiens). 30

Tell me reported IC50 for CCCCn1c(O)c2n(c1=O)[C@H](c1ccoc1)c1[nH]c3ccccc3c1C2 , tested with cGMP-specific 3',5'-cyclic phosphodiesterase (Homo sapiens). 100

Tell me reported IC50 for C=CCn1c(O)c2n(c1=S)[C@H](c1ccc(OC)cc1OC)c1[nH]c3ccccc3c1C2 , tested with cGMP-specific 3',5'-cyclic phosphodiesterase (Homo sapiens). 560

Tell me reported IC50 for CCOc1ccc([C@H]2c3[nH]c4ccccc4c3Cc3c(O)n(CCN(C)C)c(=O)n32)cc1 , tested with cGMP-specific 3',5'-cyclic phosphodiesterase (Homo sapiens). 30

Tell me reported IC50 for CCCc1nn(C)c2c(=O)[nH]c(-c3cc(S(=O)(=O)N4CCN(C)CC4)cc4c3OCO4)nc12 , tested with cGMP-specific 3',5'-cyclic phosphodiesterase (Homo sapiens). 426

Tell me reported IC50 for COc1ccc([C@@H]2c3[nH]c4ccccc4c3Cc3c(O)n(C(C)(C)C)c(=O)n32)c(OC)c1 , tested with cGMP-specific 3',5'-cyclic phosphodiesterase (Homo sapiens). 550

Tell me reported IC50 for CC(C)=CCC1=C(O)c2c(occ(-c3ccc(O[N+](=O)[O-])cc3)c2=O)C2C=CC(C)(C)OC12 (stereo not drawn) , tested with cGMP-specific 3',5'-cyclic phosphodiesterase (Homo sapiens). 500

Tell me reported IC50 for CCn1c(O)c2n(c1=O)[C@H](c1ccc(OC)cc1OC)c1[nH]c3ccccc3c1C2 , tested with cGMP-specific 3',5'-cyclic phosphodiesterase (Homo sapiens). 360

Tell me reported IC50 for CCOc1ccc([C@H]2c3[nH]c4ccccc4c3Cc3c(O)[nH]c(=O)n32)cc1 , tested with cGMP-specific 3',5'-cyclic phosphodiesterase (Homo sapiens). 20
